- Test system: MM473
- protocol notes: Antiproliferative activity against human MM473 cells incubated for 24 hrs followed by incubating in drug-free medium for 48 hrs and measured by SRB assay
- Assay type: functional, cell-based
pIC50: −log10 of the molar value.
value kind: pIC50

molecule | measured
O=C(O)C=Cc1ccc(-c2ccc(OCC(=O)NO)c(C34CC5CC(CC(C5)C3)C4)c2)cc1 | 4.92
CC(Oc1ccc(-c2ccc(C=CC(=O)O)cc2)cc1C12CC3CC(CC(C3)C1)C2)C(=O)NO (stereo not drawn) | 5.85
O=C(O)C=Cc1ccc(-c2ccc(O)c(C34CC5CC(CC(C5)C3)C4)c2)cc1 | 6.22

====

- system tested: Histone deacetylase 11 (Homo sapiens)
- Sequence (Q96DB2 whole entry): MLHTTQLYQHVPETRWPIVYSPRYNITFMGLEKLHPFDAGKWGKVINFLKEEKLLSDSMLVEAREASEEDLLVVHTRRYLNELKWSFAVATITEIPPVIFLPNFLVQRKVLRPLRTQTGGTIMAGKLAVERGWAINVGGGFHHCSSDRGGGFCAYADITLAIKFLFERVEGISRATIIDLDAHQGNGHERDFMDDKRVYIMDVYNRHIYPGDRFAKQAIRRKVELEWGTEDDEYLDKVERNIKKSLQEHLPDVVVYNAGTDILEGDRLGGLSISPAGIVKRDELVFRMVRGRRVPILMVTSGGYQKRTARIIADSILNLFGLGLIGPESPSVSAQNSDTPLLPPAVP
pIC50: −log10 of the molar value.

smiles text | system tested | pIC50
O=C(O)C=Cc1ccc(-c2ccc(O)c(C34CC5CC(CC(C5)C3)C4)c2)cc1 | Histone deacetylase 11 (Homo sapiens) | < 5.00

====

- protocol notes: Antiproliferative activity against human MM487 cells incubated for 24 hrs followed by incubating in drug-free medium for 48 hrs and measured by SRB assay
- Type: functional, cell-based
pIC50: −log10 of the molar value.
Recorded pIC50 by entry
value kind: pIC50

compound | measured
CC(Oc1ccc(-c2ccc(C=CC(=O)O)cc2)cc1C12CC3CC(CC(C3)C1)C2)C(=O)NO (stereo not drawn) | 6.14
O=C(O)C=Cc1ccc(-c2ccc(O)c(C34CC5CC(CC(C5)C3)C4)c2)cc1 | 7.00
O=C(O)C=Cc1ccc(-c2ccc(OCC(=O)NO)c(C34CC5CC(CC(C5)C3)C4)c2)cc1 | 4.66
